experiment: chemical genetic growth profiling, strain panel (AID 1159580);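 note: tested at 20 µM; growth read once vehicle control cultures reached saturation at 30 °C; 1 = growth at the plate median or of vehicle wells; lower values mean less growth of the strain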; settings: S. cerevisiae deletion strains, growth OD, locus YKL190W, strain CNB1, active compounds read low
In all, about 5,500 compounds went through this assay and about 2,000 (36%) were called active. Roughly 18% stayed inconclusive and do not appear here. This is one part of the list.
OUTCOME_MEASURE: normalized growth
Just the number, please, no unit attached.

Here are 4 compounds together with their reported answers.
{"COMPOUND": "C[C@]12CCC3C(CC[C@H]4C[C@@H](O)CC[C@]34C)C1CCC2=O (stereo partly specified)", "normalized growth": 0.862}
{"COMPOUND": "CCOC(=O)C1=C(C)NC(C)=C(C(=O)OC)C1c1cccc([N+](=O)[O-])c1 (stereo unspecified)", "normalized growth": 0.99}
{"COMPOUND": "C[C@]12CCC3c4ccc(O)cc4CCC3C1CC[C@@H]2OC(=O)CCC1CCCC1 (stereo partly specified)", "normalized growth": 0.992}
{"COMPOUND": "COc1cc(OC)c(-c2c(OC)cc(OC)cc2OC)c(OC)c1", "normalized growth": 1.02}

stdin: Entry C[C@H]1C(=O)O[C@@H]2CCN3CC=C(COC(=O)[C@](C)(O)[C@]1(C)O)[C@H]23 : reported normalized growth = ?
stdout: 1

stdin: Given CCN(C(=S)Nc1ccc(OC)cc1)c1ccccc1 , state its recorded normalized growth.
stdout: 1.02

stdin: Request the reported normalized growth associated with COc1ccc(/C(C)=N\NC2=NCCCN2)cc1
stdout: 0.973

stdin: Bench note: what normalized growth did O=C1OC(=O)C2C3CCC(O3)C12 (stereo unspecified) show?
stdout: 0.991

stdin: Please report the recorded normalized growth for N#C/C(=C\c1ccc(O)cc1)C(=O)O .
stdout: 0.992

stdin: normalized growth lookup needed for CCOC(=O)c1c(Nc2ccccc2)sc([N+](=O)[O-])c1N , thanks.
stdout: 0.977

stdin: Would you kindly share the measured normalized growth for CCCc1cc(C(=O)Nc2ccc(N(CC)CC)cc2)nn1-c1ccccc1 ?
stdout: 0.96
